Data credit: PubChem BioAssay (NCI)

Let's look at some molecules and their measured TGI.
system: HS 578T breast; assay: NCI tumour cell line growth inhibition, 48 h

molecule | TGI
Cc1sc2ncnc(NCCc3ccccc3)c2c1C | 63.6 µM
COC(=O)C1=CN(CC2=CC(=O)C(C)=CC2=O)C=C(C(=O)OC)C1c1cccc(OC)c1OC | > 87.3 µM
Cc1[nH]c2ncn(/N=C/c3ccccc3)c(=N)c2c1Cc1ccccc1 | > 100 µM
COC(=O)Nc1ccc2ccc3c(NC(=O)OC)ccc4ccc1c2c43 (tested in a mixture with another compound) | 40.4 µM
C[C@]12CC[C@H]3[C@@H](CC=C4C[C@@H](O)CC[C@@]43C)[C@@H]1C/C(=C\c1cccc(OCCN3CCOCC3)c1)[C@@H]2O | > 100 µM
CCN(CC)c1ccc(/C=C/C2=NN(c3cccc(S(=O)(=O)O)c3)C3(C2)C(Cl)C(=O)N3c2nc3ccccc3s2)cc1 (centres undefined) | > 90.2 µM
Cn1c2ccccc2c2c(=O)n(CCCC(=O)NCC(=O)OC(=NC3CCCCC3)NC3CCCCC3)c3c(-c4ccccc4)nnn3c21 | > 100 µM
O=C(O)CCC(=O)Nc1ccc2c(c1)S(=O)(=O)N(CC(=O)O)C2=O | > 100 µM
Cc1ccc2c(ccc3c[n+]4ccccc4c(C)c32)c1 | 15.3 µM
